Values from patent US10316039B2

Reported values of IC50 for individual entries
System: P2X3 (UniProt P56373)
Experimental Details: P2X3 FLIPR intracellular calcium assay
Assay type: cell-based
Conditions Used: agonist at EC75, species (human or rat) not given

Compound: Cc1noc(C)c1-c1cc(C(=O)N[C@@H](C)c2nnc[nH]2)cn2c(-c3ccc(Cl)s3)cnc12 [Example 107]
IC50: 1 to 100 nM
//
Compound: Cc1ccc(-c2cnc3c(-c4cnn(CC(N)=O)c4)cc(C(=O)N[C@@H](C)c4nnc[nH]4)cn23)s1 [Example 112]
IC50: 100 to 1000 nM
//
Compound: Cc1ccc(-c2cnc3c(N4CCC(C)(C)CC4)cc(C(=O)N[C@@H](C)c4nnc[nH]4)cn23)s1 [Example 129]
IC50: 1 to 100 nM

Read the next record carefully.
Record for COc1ncc(CNC(=O)c2cc(-n3nnnc3C(F)F)c3ncc(-c4ccc(C)s4)n3c2)cn1 [Example 169] under target or system P2X3 (UniProt P56373): IC50 reported as 1 to 100 nM

----------
IC50 reference
System: P2X2/3 (Homo sapiens, UniProt P56373+Q9UBL9)
Sequence (Q9UBL9 1-471): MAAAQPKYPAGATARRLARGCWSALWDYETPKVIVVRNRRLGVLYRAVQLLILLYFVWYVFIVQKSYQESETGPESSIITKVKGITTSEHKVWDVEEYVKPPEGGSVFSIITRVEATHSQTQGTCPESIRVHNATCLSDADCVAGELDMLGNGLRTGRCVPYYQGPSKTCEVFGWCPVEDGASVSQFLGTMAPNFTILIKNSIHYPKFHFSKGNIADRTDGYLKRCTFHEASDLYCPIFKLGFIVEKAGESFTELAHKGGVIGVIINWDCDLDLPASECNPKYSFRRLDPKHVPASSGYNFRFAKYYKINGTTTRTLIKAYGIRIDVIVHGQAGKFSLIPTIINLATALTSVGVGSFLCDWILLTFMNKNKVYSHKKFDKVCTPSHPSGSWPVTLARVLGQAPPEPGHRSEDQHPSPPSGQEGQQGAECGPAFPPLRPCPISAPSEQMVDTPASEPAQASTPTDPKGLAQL
Sequence (P56373 1-397): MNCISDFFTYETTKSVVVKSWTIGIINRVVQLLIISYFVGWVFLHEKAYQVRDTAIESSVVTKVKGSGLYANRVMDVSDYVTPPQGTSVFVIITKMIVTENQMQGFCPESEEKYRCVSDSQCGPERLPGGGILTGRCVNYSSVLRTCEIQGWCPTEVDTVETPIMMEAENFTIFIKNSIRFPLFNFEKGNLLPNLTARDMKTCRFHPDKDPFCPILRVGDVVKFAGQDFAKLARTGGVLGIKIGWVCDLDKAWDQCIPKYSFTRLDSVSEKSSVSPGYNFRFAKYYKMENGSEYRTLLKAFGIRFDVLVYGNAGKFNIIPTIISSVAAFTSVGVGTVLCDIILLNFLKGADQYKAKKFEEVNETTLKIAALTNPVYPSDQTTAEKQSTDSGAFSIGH
Experimental Details: P2X2/3 FLIPR intracellular calcium assay
Conditions Used: agonist at EC75, species (human or rat) not given

Compound Structure String: Cc1ccc(-c2cnc3c(-c4cnn(CCF)c4)cc(C(=O)N[C@@H](C)c4nnc[nH]4)cn23)s1
IC50: 100 to 1000 nM
//
Compound Structure String: Cc1ccc(-c2cnc3c(-n4nncc4C(F)F)cc(C(=O)N[C@@H](C)c4nnc[nH]4)cn23)o1
IC50: 1 to 100 nM
//
Compound Structure String: Cc1ccc(CNC(=O)c2cc(-n3nnnc3C(F)F)c3ncc(-c4ncc(C)s4)n3c2)cn1
IC50: 100 to 1000 nM

Then this molecule:
Cc1ccc(CNC(=O)c2cc(-n3nnnc3CC3CC3)c3ncc(-c4ccc(C)s4)n3c2)cn1 has a reported IC50 of 1 to 100 nM
